All figures here come from patent US20160213742A1.

I'd appreciate it if you could supply MIC values for the items below.
Tested on: C. glabrata ATCC 90030
Experiment: microbe, parasite or virus in culture
Format: cell-based
Conditions: ATCC 90030, pH 7
Give bare numbers, in µg/mL.

{"columns": ["Molecule", "MIC / µg/mL"],
 "data": [
  ["CC[C@H](C)C[C@H](C)CCCCCCCCC(=O)N[C@H]1C[C@@H](O)[C@@H](OCCN)NC(=O)[C@@H]2[C@@H](O)CCN2C(=O)[C@H]([C@H](O)CCNC(=O)CCNC(=O)[C@H](Cc2ccccc2)NC(=O)[C@H](CC(C)C)NC(=O)[C@H](CCSC)NC=O)NC(=O)[C@H]([C@H](O)[C@@H](O)c2ccc(O)cc2)NC(=O)[C@@H]2C[C@@H](O)CN2C(=O)[C@H]([C@@H](C)O)NC1=O [Compound 10]", 8]
]}

Challenge: Report measured MIC on C. glabrata ATCC 90030; entry: CC[C@H](C)C[C@H](C)CCCCCCCCC(=O)N[C@H]1C[C@@H](O)[C@@H](NCCNC(=O)CCNC(=O)[C@H](Cc2ccccc2)NC(=O)[C@H](CC(C)C)NC(=O)[C@H](CCSC)NC(=O)OCC(C)C)NC(=O)[C@@H]2[C@@H](O)CCN2C(=O)[C@H]([C@H](O)CCN)NC(=O)[C@H]([C@H](O)[C@@H](O)c2ccc(O)cc2)NC(=O)[C@@H]2C[C@@H](O)CN2C(=O)[C@H]([C@@H](C)O)NC1=O [Compound 6]
Response given: 4
